// values below are reported MIC
# Test system: Escherichia coli
# protocol-summary: Antibacterial activity against Escherichia coli ATCC 9637 after 24 hrs by broth microdilution method
# Assay type: functional
# assay-conditions: ATCC 9637, 24 h
value-type: MIC

CN1CCN(C2=C(Cl)C(=O)C(N3CCN(C)CC3)=C(Cl)C2=O)CC1 = 6.25 mg/L
O=C1C(Cl)=C(Sc2cccc3ccccc23)C(=O)C(Cl)=C1Sc1cccc2ccccc12 = > 50 mg/L
CCOC(=O)CC(SC1=C(SC(CC(=O)OCC)C(=O)OCC)C(=O)C(SC(CC(=O)OCC)C(=O)OCC)=C(SC(CC(=O)OCC)C(=O)OCC)C1=O)C(=O)OCC (stereo not drawn) = > 50 mg/L
Cc1ccc(SC2=C(Sc3ccc(C)cc3)C(=O)C(Sc3ccc(C)cc3)=C(Sc3ccc(C)cc3)C2=O)cc1 = > 50 mg/L
O=C1C(Cl)=C(Sc2cccc3ccccc23)C(=O)C(Sc2cccc3ccccc23)=C1Sc1cccc2ccccc12 = > 50 mg/L
O=C1C(Cl)=C(Sc2ccccc2)C(=O)C(Cl)=C1Sc1ccccc1 = > 50 mg/L
CC1(C)S[C@@H]2[C@H](NC(=O)[C@H](N)c3ccccc3)C(=O)N2[C@H]1C(=O)O = 12.5 mg/L
O=C1C(Cl)=C(N2CCCC2)C(=O)C(Cl)=C1N1CCCC1 = > 50 mg/L

====

// values below are reported MIC
# System: Trichophyton mentagrophytes
# protocol-summary: Antifungal activity against Trichophyton mentagrophytes after 96 hrs by broth microdilution method
# Type: functional
value-type: MIC (µg/mL)

O=C1C(O)=C(Sc2ccccc2)C(=O)C(Sc2ccccc2)=C1Sc1ccccc1 = 50
O=C1C(Cl)=C(Sc2ccccc2)C(=O)C(Cl)=C1Sc1ccccc1 = 50
O=C1C=C(Sc2ccccc2)C(=O)C=C1Sc1ccccc1 = 50
Clc1ccccc1C(c1ccccc1)(c1ccccc1)n1ccnc1 [CLOTRIMAZOLE] = 2
O=C1C(Cl)=C(Sc2ccccc2)C(=O)C(Sc2ccccc2)=C1Sc1ccccc1 = 50
Cc1ccc(SC2=C(O)C(=O)C(Sc3ccc(C)cc3)=C(Sc3ccc(C)cc3)C2=O)cc1 = 50
O=C1C(Cl)=C(Sc2cccc3ccccc23)C(=O)C(Sc2cccc3ccccc23)=C1Sc1cccc2ccccc12 = 50
O=C1C(Cl)=C(N2CCCC2)C(=O)C(Cl)=C1N1CCCC1 = 50
O=C1C(Sc2ccccc2)=C(Sc2ccccc2)C(=O)C(Sc2ccccc2)=C1Sc1ccccc1 = 0.78
CN1CCN(C2=C(Cl)C(=O)C(N3CCN(C)CC3)=C(Cl)C2=O)CC1 = 0.78
CCOC(=O)CC(SC1=C(SC(CC(=O)OCC)C(=O)OCC)C(=O)C(SC(CC(=O)OCC)C(=O)OCC)=C(SC(CC(=O)OCC)C(=O)OCC)C1=O)C(=O)OCC (stereo not given) = 50
CCOC(=O)CSC1=C(SCC(=O)OCC)C(=O)C(SCC(=O)OCC)=C(SCC(=O)OCC)C1=O = 50
O=C1C(Cl)=C(Sc2cccc3ccccc23)C(=O)C(Cl)=C1Sc1cccc2ccccc12 = 50
O=C1C(O)=C(Sc2cccc3ccccc23)C(=O)C(Sc2cccc3ccccc23)=C1Sc1cccc2ccccc12 = 50
Cc1ccc(SC2=C(Cl)C(=O)C(Sc3ccc(C)cc3)=C(Cl)C2=O)cc1 = 50

====

# Test system: Candida parapsilosis
# protocol-summary: Antifungal activity against Candida parapsilosis ATCC 22019 after 48 hrs by broth microdilution method
# Type: functional
# assay-conditions: Lodderomyces parapsilosis, ATCC 22019, 48 h
value-type: MIC (µg/mL)

O=C1C(O)=C(Sc2cccc3ccccc23)C(=O)C(Sc2cccc3ccccc23)=C1Sc1cccc2ccccc12 = 25
O=C1C(Cl)=C(Sc2cccc3ccccc23)C(=O)C(Sc2cccc3ccccc23)=C1Sc1cccc2ccccc12 = 12.5
O=C1C(Cl)=C(N2CCOCC2)C(=O)C(Cl)=C1N1CCOCC1 = 12.5
O=C1C(Cl)=C(Sc2cccc3ccccc23)C(=O)C(Cl)=C1Sc1cccc2ccccc12 = 12.5
O=C1C(Cl)=C(N2CCCC2)C(=O)C(Cl)=C1N1CCCC1 = 50
O=C1C(Sc2ccccc2)=C(Sc2ccccc2)C(=O)C(Sc2ccccc2)=C1Sc1ccccc1 = 6.25
O=C1C=C(Sc2ccccc2)C(=O)C=C1Sc1ccccc1 = 50
O=C1C(Cl)=C(N2CCCCC2)C(=O)C(Cl)=C1N1CCCCC1 = 25
O=C1C(Cl)=C(Sc2ccccc2)C(=O)C(Sc2ccccc2)=C1Sc1ccccc1 = 25
Cc1ccc(SC2=C(Sc3ccc(C)cc3)C(=O)C(Sc3ccc(C)cc3)=C(Sc3ccc(C)cc3)C2=O)cc1 = 25
O=C1C(O)=C(Sc2ccccc2)C(=O)C(Sc2ccccc2)=C1Sc1ccccc1 = 12.5
CN1CCN(C2=C(Cl)C(=O)C(N3CCN(C)CC3)=C(Cl)C2=O)CC1 = 6.25
OC(Cn1cncn1)(Cn1cncn1)c1ccc(F)cc1F [FLUCONAZOLE] = 0.5
Nc1nc(=O)[nH]cc1F [FLUCYTOSINE] = 0.13
Cc1ccc(SC2=C(Cl)C(=O)C(Sc3ccc(C)cc3)=C(Cl)C2=O)cc1 = 25
Clc1ccccc1C(c1ccccc1)(c1ccccc1)n1ccnc1 [CLOTRIMAZOLE] = 1
Cc1ccc(SC2=C(O)C(=O)C(Sc3ccc(C)cc3)=C(Sc3ccc(C)cc3)C2=O)cc1 = 25
CCOC(=O)CC(SC1=C(SC(CC(=O)OCC)C(=O)OCC)C(=O)C(SC(CC(=O)OCC)C(=O)OCC)=C(SC(CC(=O)OCC)C(=O)OCC)C1=O)C(=O)OCC (stereo not given) = 25
CCOC(=O)CSC1=C(SCC(=O)OCC)C(=O)C(SCC(=O)OCC)=C(SCC(=O)OCC)C1=O = 25
O=C1C(Cl)=C(Sc2ccccc2)C(=O)C(Cl)=C1Sc1ccccc1 = 25

====

// values below are reported MIC
# Test system: Staphylococcus aureus
# protocol-summary: Antibacterial activity against Staphylococcus aureus ATCC 25923 after 24 hrs by broth microdilution method
# Format: functional
# assay-conditions: ATCC 25923, 24 h
value-type: MIC (µg/mL)

O=C1C(Cl)=C(Sc2cccc3ccccc23)C(=O)C(Cl)=C1Sc1cccc2ccccc12 = 25
CCOC(=O)CSC1=C(SCC(=O)OCC)C(=O)C(SCC(=O)OCC)=C(SCC(=O)OCC)C1=O = 50

====

// values below are reported MIC
# Test system: Klebsiella pneumoniae
# protocol-summary: Antibacterial activity against Klebsiella pneumoniae ATCC 27736 after 24 hrs by broth microdilution method
# Assay type: functional
# assay-conditions: ATCC 27736, 24 h
value-type: MIC

O=C1C(Cl)=C(Sc2cccc3ccccc23)C(=O)C(Sc2cccc3ccccc23)=C1Sc1cccc2ccccc12 = > 50 µg/mL
O=C1C(O)=C(Sc2ccccc2)C(=O)C(Sc2ccccc2)=C1Sc1ccccc1 = > 50 µg/mL
CN1CCN(C2=C(Cl)C(=O)C(N3CCN(C)CC3)=C(Cl)C2=O)CC1 = 6.25 µg/mL
O=C1C(Cl)=C(N2CCOCC2)C(=O)C(Cl)=C1N1CCOCC1 = > 50 µg/mL

====

# System: Staphylococcus aureus
# protocol-summary: Antibacterial activity against Staphylococcus aureus ATCC 25923 after 24 hrs by broth microdilution method
# Type: functional
# assay-conditions: ATCC 25923, 24 h
value-type: MIC

O=C1C(Sc2ccccc2)=C(Sc2ccccc2)C(=O)C(Sc2ccccc2)=C1Sc1ccccc1 = > 50 µg/mL
O=C1C(O)=C(Sc2cccc3ccccc23)C(=O)C(Sc2cccc3ccccc23)=C1Sc1cccc2ccccc12 = > 50 µg/mL
Cc1ccc(SC2=C(Cl)C(=O)C(Sc3ccc(C)cc3)=C(Cl)C2=O)cc1 = 50 µg/mL
O=C1C(Cl)=C(N2CCCCC2)C(=O)C(Cl)=C1N1CCCCC1 = > 50 µg/mL
Cc1ccc(SC2=C(Sc3ccc(C)cc3)C(=O)C(Sc3ccc(C)cc3)=C(Sc3ccc(C)cc3)C2=O)cc1 = > 50 µg/mL
O=C1C(Cl)=C(N2CCOCC2)C(=O)C(Cl)=C1N1CCOCC1 = 25 µg/mL
CCOC(=O)CC(SC1=C(SC(CC(=O)OCC)C(=O)OCC)C(=O)C(SC(CC(=O)OCC)C(=O)OCC)=C(SC(CC(=O)OCC)C(=O)OCC)C1=O)C(=O)OCC (stereo not drawn) = > 50 µg/mL
CN1CCN(C2=C(Cl)C(=O)C(N3CCN(C)CC3)=C(Cl)C2=O)CC1 = 6.25 µg/mL
O=C1C(Cl)=C(Sc2ccccc2)C(=O)C(Sc2ccccc2)=C1Sc1ccccc1 = 50 µg/mL
CC1(C)S[C@@H]2[C@H](NC(=O)[C@H](N)c3ccccc3)C(=O)N2[C@H]1C(=O)O = 12.5 µg/mL
O=C1C(Cl)=C(Sc2ccccc2)C(=O)C(Cl)=C1Sc1ccccc1 = 50 µg/mL
O=C1C(Cl)=C(Sc2cccc3ccccc23)C(=O)C(Sc2cccc3ccccc23)=C1Sc1cccc2ccccc12 = 12.5 µg/mL
O=C1C(Cl)=C(N2CCCC2)C(=O)C(Cl)=C1N1CCCC1 = > 50 µg/mL
